# ASSAY_DETAILS: Counterscreen qHTS for Inhibitors of Tau Fibril Formation, Fluorescence Polarization; note: nearly all actives have a fitted effect of over 55% in size
# EXPERIMENTAL_CONDITIONS: tau K18 P301L Alexa594 fluorescence, heparin fibrillization; series mostly up to 57.7 µM
Hit rate of the full screen: of about 280,000 compounds, about 2,600 (0.93%) were called active. Not shown: some 8% with an inconclusive outcome. Calls come from the whole dose curve; as a rule, active = well fitted curve in the direction sought with a large enough effect; inconclusive = small, poorly fitted or top-dose-only effect; inactive = flat fitted curve, though single readings scatter. The sample as a whole holds a higher share of actives than the screen did.
Output constraint: value belongs to active, inactive

> print(dat)
                              record.smiles  category.label
1  CCOc1cc(-c2cc(-c3ccc(OC)cc3)nc(N)c2C#N)ccc1O        inactive

[in] Field: outcome | Entry: `CCn1c(CN2CCC(C)CC2)nc2cc(NC(=O)c3ccccc3[N+](=O)[O-])ccc21`
[out] inactive

[in] And the next one, `CCC(=O)Nc1cccc(C(=O)OCc2cc(=O)n3nc(CC)sc3n2)c1` ?
[out] inactive

[in] And the next one, `Cc1cc(C)cc(Nc2ncnc3onc(-c4ccc(F)cc4)c23)c1` ?
[out] inactive

[in] And the next one, `NS(=O)(=O)c1ccc(NC(=S)NC(=O)c2cccc(Br)c2)cc1` ?
[out] inactive

[in] And the next one, `CCSc1nc(-c2ccc(OC)cc2)cc(-c2ccc(OC)cc2)c1C#N` ?
[out] inactive

[in] And the next one, `CCC1=Nc2cc(C(=O)NCCCOC(C)C)ccc2Sc2ccc(C)cc21` ?
[out] inactive

[in] And the next one, `O=C(COc1ccccc1)NCc1ccc2c(c1)CCN2C(=O)c1ccc(F)cc1` ?
[out] inactive

[in] And the next one, `COc1ccc(-c2cc(-c3ccc(N)cc3)nc(N)c2C#N)cc1OC` ?
[out] active

[in] And the next one, `O=C(NC(=S)Nc1cccc2c(O)cccc12)c1cccc(Br)c1` ?
[out] active

---

# ASSAY_DETAILS: Counterscreen qHTS for Inhibitors of Tau Fibril Formation, Fluorescence Polarization; note: nearly all actives have a fitted effect of over 55% in size
# EXPERIMENTAL_CONDITIONS: tau K18 P301L (four-repeat tau fragment) Alexa594 fluorescence, heparin fibrillization; series mostly up to 57.7 µM
In all, about 280,000 compounds went through this assay and about 2,600 (0.93%) were called active. Another 8% or so got no clear call; they are omitted. The call rests on the fitted dose curve; in most records, active means well fitted curve in the direction sought with a large enough effect; inconclusive means small, poorly fitted or top-dose-only effect; inactive means flat fitted curve, though single readings scatter. The list comes from a sample in which actives are over-represented; it also holds close analogues and randomly drawn compounds.
Output constraint: value belongs to True (active), False (inactive)

Examples with answers:
> print(dat)
                                   compound  category.label
1         CCOC(=O)c1ccc(NC(=O)CCn2cnnn2)cc1           False
2               COC(=O)CSc1nccc(-c2cccs2)n1           False
3           COc1ccc(NC(=O)c2c(SC)nsc2SC)cc1           False
4  CC1=Nc2cc(C(=O)NCc3ccc(C)cc3)ccc2Sc2ccc(Cl)cc21           False
5  CN(C)c1cccc(C(=O)Nc2nc3ccc(S(=O)(=O)NC(C)(C)C)cc3s2)c1           False
6  Cc1ccc(C(=O)NCCSc2c(C)[nH]c3ccccc23)cc1C            True

Pending compound:
[in] Field: outcome | Entry: Cc1ccc(C2c3[nH]c4ccccc4c3CCN2C(=O)c2cccc(C)c2)cc1 (configuration not stated)
[out] False
